measuredOn: T1, DnaT (wt, full length) (Escherichia coli K12, UniProt P0A8J2 1-179)
T1 sequence: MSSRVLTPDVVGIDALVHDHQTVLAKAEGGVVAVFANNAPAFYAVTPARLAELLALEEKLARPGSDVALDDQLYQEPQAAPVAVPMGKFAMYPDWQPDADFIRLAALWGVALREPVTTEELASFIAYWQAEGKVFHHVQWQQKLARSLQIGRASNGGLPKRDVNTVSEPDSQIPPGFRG
assayDetails: fluorescence polarization; apparent; Hill h=2.3±0.3; Buffer A: 20 mM Tris-HCl pH 7.5, 40 mM NaCl, 5% v/v glycerol, 20 C; FPA 200 nM 5'-FAM DNA, Hill fit; EMSA 30 min at 20 C, gels in 0.5x TBE at 4 C
conditionContext: protein: recombinant; tags: His-MBP removed by TEV; label: 5'-FAM
assayReadout: Kd (µM)
Hi! Could you send only the number? It should be in µM, unit omitted.

**Query** Consider the binder shown here: CACACACACACACACACACACACACACACA (ssDNA) [5F-d(CA)15] What is its recorded Kd?
**Result** 31.5

From: paper PMC4132743
